Method: physchem
Test context: aqueous buffer
Measured quantity: solubility

[ask] Please give the measured solubility for this compound: O=C(O)CCCCCCCC(=O)O [azelaic acid]
[reply] > 600 mg/mL
